- System: OVCAR-8 ovarian
- testProtocol: NCI-60 one-dose screen, 48 h (100 = growth as untreated, 0 = no growth, -100 = all killed)
- details: 10 µM unless noted
- Procedure: Growth inhibition of the OVCAR-8 human tumor cell line is measured as a screen for anti-cancer activity. Cells are grown in 96 well plates and exposed to the test compound for 48 hours. Compounds are tested at a single concentration, which is 10^-5 M for most compounds. The reported endpoint is percent growth (GI% or GIPRCNT), where numbers from 0 - 100% represent growth inhibition, and numbers from -100% - 0 represent cell death. For example, a value of 40 represents 60% growth inhibition. […]
The panel holds about 83,000 compounds, 20% with a hit somewhere; the sample as a whole holds those more often. Active and inactive are the calls of the source. Rule for the calls: active = growth percent below 10; inactive = the rest.
So I've got a bunch of molecules here, and I need their growth values.

Worked examples follow.
| molecule | growth |
| --- | --- |
| COc1ccc2c(c1)C(C)Cc1c(N(C)C)ncnc1N2C (stereo not given) | 40.8% (inactive) |
| O=C1Nc2cc(Cl)ccc2Oc2cc(Oc3ccccc3)ccc21 | 88% (inactive) |
| COc1ccc(-c2nc3sccn3c2-c2ccnc(NCCCNS(=O)(=O)c3ccc(F)cc3)n2)cc1 | 6.98% (active) |
| CC(C)C(C(=O)CCN(C)C)c1ccc(Cl)cc1 (stereo not given) | 93.3% (inactive) |
| CC1Cc2c(N(C)C)ncnc2N(C)c2ccc(O)cc21 (stereo not given) | 103% (inactive) |

State the recorded growth for every item in the following list.
1. CCN(CC)CCCC(C)N=c1cc(Nc2cc(=NC(C)CCCN(CC)CC)c3cc(OC)ccc3o2)oc2ccc(OC)cc12 (stereo not given)
2. CCCOC(=O)C1(O)CCCC1
3. CCN1C(=O)N(CC)C2Nn3c(s/c(=C\c4cccc(F)c4)c3=O)=NC21 (stereo not given)
4. C=C1C(=O)O[C@H]2[C@H]1CC/C(COC(=O)NCc1ccc(OC)cc1)=C\CC[C@@]1(C)O[C@@H]21
5. NC(=O)c1c(NC(=O)c2ccc(OCC3CCCO3)cc2)sc2c1CCCC2 (stereo not given)

// result
["-1.52% (active)", "102% (inactive)", "77.4% (inactive)", "21.5% (inactive)", "104% (inactive)"]

====

- Test system: SF-539 CNS
- testProtocol: NCI-60 one-dose screen, 48 h (100 = growth as untreated, 0 = no growth, -100 = all killed)
- details: 10 µM unless noted
- Experimental: Cells are grown in 96 well plates and exposed to the test compound for 48 hours. Compounds are tested at a single concentration, which is 10^-5 M for most compounds. The reported endpoint is percent growth (GI% or GIPRCNT), where numbers from 0 - 100% represent growth inhibition, and numbers from -100% - 0 represent cell death. For example, a value of 40 represents 60% growth inhibition. A value of 0 means no net growth occurred over the course of the experiment. […]
Compounds without any hit were thinned out: in the full panel of roughly 83,000, 20% have a hit.
So I've got a bunch of compounds here, and I need their growth values.
One number for each entry, in %.

| compound | studyTarget | growth, % |
| --- | --- | --- |
| CCn1cc(C(=O)O)c(=O)c2cc(F)c(N3CCN(S(=O)(=O)c4ccc(OC)c(OC)c4)CC3)cc21 | SF-539 CNS | 90.8 |
| COC(=O)CCCCCN=Cc1c(O)c(O)c(C(C)C)c2cc(C)c(-c3c(C)cc4c(C(C)C)c(O)c(O)c(C=NCCCCCC(=O)OC)c4c3O)c(O)c12 | SF-539 CNS | 23.7 |
| Nc1c(C(=O)Nc2cccc(C(F)(F)F)c2)sc2nc3c(cc12)CCCCC3 | SF-539 CNS | -63.3 |

State the recorded growth for every item in the following list.
1. COc1cc(/C=C\c2cc(OC)c(OC)c(OC)c2)cc(N/C=C\C(=O)c2c[nH]c3ccccc23)c1OC
2. NCCSC(c1ccccc1)(c1ccccc1)c1ccccc1

// result
-95.2
-46.1

State the recorded growth for every item in the following list.
1. COc1ccc(C2CC(c3cccs3)=NN2c2ccc(S(=O)(=O)NC(=O)Nc3ccc(C)cc3)cc2)cc1 (centres undefined)
2. COc1cccc(NC(=O)c2sc3nc4c(cc3c2N)CCCC4)c1
3. O=c1cc(C2NCCc3c2[nH]c2ccccc32)c2c(ccc3ccccc32)o1 (centres undefined)

// result
1. 98.3
2. -12.8
3. 79.4

State the recorded growth for every item in the following list.
1. COc1ccc(OC)c(NC(=O)c2cc(S(=O)(=O)N3CCc4ccccc43)ccc2OC)c1
2. CC(C)C[C@H](NC(=O)[C@H](Cc1ccccc1)n1ccc(N2CCCCC2)cc1=O)B(O)O
3. COc1cc(Cn2c(SCCC(=O)Nc3ccc(F)cc3)nc3ccccc3c2=O)cc(OC)c1OC

// result
1: 82.9; 2: -11.5; 3: 84.2

State the recorded growth for every item in the following list.
1. C#CCN1C(=O)/C(=c2\sc3n(c2=O)NC2C(N=3)N(CC)C(=O)N2CC)c2ccccc21 (centres undefined)
2. COc1cc(OC)c(C(=O)/C=C/c2ccc(C#N)cc2)c(OC)c1
3. CCCCCCCCCN1C(=O)/C(=c2\sc3n(c2=O)C2C(NN=3)N(CC)C(=O)N2CC)c2ccccc21 (centres undefined)
4. CC(CCc1ccccc1)NC(=O)c1n[nH]c(=O)c2ccccc12 (centres undefined)
5. CC(=O)Nc1ccc2c(c1)/C(=C\C=C/c1ccc([N+](C)(C)C)cc1)c1ccccc1-2

// result
1: 38.7; 2: 2.95; 3: 8.03; 4: 98.6; 5: 42.4
